molecular target: human MC-4R (Homo sapiens); construct: expressed in transfected cells; test: Biological Assay: inhibition of AgRP functional interaction with MC-4R in presence of αMSH (cAMP production); assay type: cell-based; settings: HEK293 cells expressing human MC-4R, AgRP83-132 and αMSH present; read-out: Average EC50 (nM) in Biological Assay
Sequence (P32245 whole entry): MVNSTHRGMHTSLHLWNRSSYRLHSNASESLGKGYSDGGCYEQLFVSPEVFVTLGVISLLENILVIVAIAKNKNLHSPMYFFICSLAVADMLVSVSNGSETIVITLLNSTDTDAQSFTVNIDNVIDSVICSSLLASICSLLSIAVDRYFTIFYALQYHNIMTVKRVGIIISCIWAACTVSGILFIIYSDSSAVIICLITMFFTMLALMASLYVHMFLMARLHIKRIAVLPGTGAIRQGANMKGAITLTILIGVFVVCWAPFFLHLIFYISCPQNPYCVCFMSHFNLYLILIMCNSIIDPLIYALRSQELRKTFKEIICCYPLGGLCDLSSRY
Exercise: state measured EC50 for each of the compounds provided.
Numbers only, in nM.

CCc1ccc(CN(CCC(=O)O)c2nc(C3(C)CCC(C(C)C)CC3)cs2)s1 (stereo not shown) = 102

Below are some compounds; for each one, tell me its EC50.
1. Cc1ccc(CN(CCC(=O)O)c2nc(CC3CCC(C)(C)CC3)cs2)s1
2. COC1CCC(c2csc(N(CCC(=O)O)Cc3ccc(C)s3)n2)CC1 (stereo not shown) [Example 31]
3. Cc1cc(CN(CCC(=O)O)c2nc(C3CCC(C(C)(C)C)CC3)cs2)c(C)s1 (stereo not shown)

1. 90
2. 1570
3. 80
